// data source = PubChem BioAssay (NCI)

# System: DMS 273 small cell lung
# procedure.details: NCI tumour cell line growth inhibition, 48 h
reported.property: TGI

{"molecule": "N#CC(C#N)=C1CCC2C(=C(C#N)C#N)CCC12 (stereo not drawn)", "TGI": "> 100 µM"}
{"molecule": "NC(=O)c1ncn2c(=O)n(CCCl)nnc12", "TGI": "275 µM"}

Ask: Data request, read-out TGI, for CCCCCC(/C=C/c1ncccc1OCCCCCC(=O)O)=N\NC1=NCCN1
Result: > 100 µM

====

# Tested on: MALME-3M melanoma
# procedure.details: NCI tumour cell line growth inhibition, 48 h
Recorded GI50 for the following compounds

{"compound": "CCCCNCCCCCNc1cc(OC)cc2cccnc12", "GI50": "18 µM"}

Now for the compound whose GI50 we want.
Ask: Can you share its GI50? I mean this compound: C[C@@H](Oc1cc(-c2cnn(C3CCNCC3)c2)cnc1N)c1c(Cl)cc(F)cc1Cl
Result: 1.27 µM

====

TGI reference
# System: SW-620 colon
# procedure.details: NCI tumour cell line growth inhibition, 48 h

Sample records with TGI:
{"smiles.structure": "CC(=N\\O)/C(C)=N/O.CC(=N\\O)/C(C)=N/O.[Fe].[NH2-].c1c[nH]cn1", "test.result": "> 100 µM"}
{"smiles.structure": "C1=Cc2cccc3occ(c23)C=C1", "test.result": "> 100 µM"}

Ask: GET /values?readout=TGI&item= Cn1cc(-c2nc(-c3cn(C)c4ncccc34)cs2)c2ccccc21
Result: > 100 µM

====

# System: RPMI-8226 leukemia
# procedure.details: NCI tumour cell line growth inhibition, 48 h
Parameter TGI: see the listing below.

{"molecule": "CCC(=O)CCC1=Nc2nnc(CCCCc3nnc4n3C(=O)C(CCC(=O)CC)=N4)n2C1=O", "TGI": "> 100 µM"}
{"molecule": "CC1(C)CCC[C@@]2(C)C1CC[C@@]1(CO1)[C@@H]2/C=C\\C(C=O)CC=O (stereo partly drawn)", "TGI": "> 28.1 µM"}

Ask: Test system RPMI-8226 leukemia; read-out TGI; what value for C/C(=N/N)c1sc(-c2nc(C)c(/C(C)=N\N)s2)nc1C ?
Result: > 63.9 µM

====

# Test system: MDA-MB-231 breast
# procedure.details: NCI tumour cell line growth inhibition, 48 h
Items are presented alongside their recorded GI50.

{"compound": "CC1(C)CN(CCNc2nccc(-c3c(-c4cccc(O)c4)nc4sccn34)n2)S(=O)(=O)N1", "target.under.test": "MDA-MB-231 breast", "GI50": "7.94 µM"}

Ask: Look at this compound and give its reported GI50. CC1(C)CC[C@]2(CO)CC[C@]3(C)C(=CC[C@@H]4[C@@]5(C)CCNCC(C)(C)[C@@H]5CC[C@]43C)[C@@H]2C1
Result: 3.49 µM

Ask: Entry NC(Cc1c[nH]c2cccc(F)c12)C(=O)O (stereo not given) : reported GI50 = ?
Result: 545 µM

Ask: Requested field: GI50. Item: CC(=N\O)/C(C)=N/O.CC(=N\O)/C(C)=N/O.[Fe].[NH2-].c1c[nH]cn1
Result: > 100 µM

Ask: Query (compound): CCOC(=O)c1ccc(NC(=O)c2cccc(NC3=C(Cl)C(=O)N(Cc4ccccc4)C3=O)c2)cc1 ; field requested: GI50
Result: 92 µM

====

Entries and their TGI
# Test system: HS 578T breast
# procedure.details: NCI tumour cell line growth inhibition, 48 h

Example results:
{"molecule": "O=C(Nc1ccc(Cl)cc1)N1CCN(c2ccc3nncn3n2)CC1", "target.under.test": "HS 578T breast", "TGI": "> 100 µM"}
{"molecule": "OCC1OC(n2cnc3c(NCc4ccco4)ncnc32)C(O)C1O (configuration not stated)", "target.under.test": "HS 578T breast", "TGI": "> 100 µM"}
{"molecule": "CCOC(=O)CCSC1=CC(=O)c2nc3ccccc3c3ccnc1c23", "target.under.test": "HS 578T breast", "TGI": "> 100 µM"}

Ask: Name the reported TGI value associated with the molecule Cc1ccc(O)c(C(c2cc(C)ccc2O)c2cc([N+](=O)[O-])ccc2O)c1
Result: 37.9 µM

Ask: So what's the measured TGI for this one? C/C(=N\NC(=S)N1CCN(c2ccccn2)CC1)c1cccc2cccnc12
Result: > 100 µM

Ask: For CCSCCCC(=O)O , what is its reported TGI?
Result: > 100 µM

Ask: Fill blank: measured TGI of the molecule Cc1cc(OCc2nn(CN3CCN(C)CC3)c(=S)n2/N=C/c2ccc(F)cc2)ccc1Cl is ____.
Result: 88.7 µM

====

# System: EKVX NSCLC
# procedure.details: NCI tumour cell line growth inhibition, 48 h
Measured TGI, listed per entry.
A number alone suffices; assume µM.

{"smiles.structure": "NCCCNc1nc2ccccc2c2c(=O)c3cc(F)cc(Cl)c3sc12", "TGI / µM": 3.07}

Turning now to a further compound:
Ask: Requested read-out TGI, target or system EKVX NSCLC, entry O=C(CCl)Nc1ccc(Cc2ccc(NC(=O)CCl)cc2)cc1
Result: 5.78

====

// values below are reported TGI
# Test system: NCI-H226 lung
# procedure.details: NCI tumour cell line growth inhibition, 48 h

Example entries begin here.
{"compound": "C/C(=N\\NC(=S)N1CCN(c2ccccn2)CC1)c1cccc2cccnc12", "TGI": "38.4 µM"}
{"compound": "CCOC(=O)CCn1cnc(N)n1", "TGI": "> 100 µM"}
{"compound": "CC(C)(C)OC(=O)N1Cc2cc3ccccc3nc2C1CO (stereo unspecified)", "TGI": "> 100 µM"}
{"compound": "Oc1ccc(/C=N/c2nccs2)c(O)c1", "TGI": "> 100 µM"}
{"compound": "Cc1cc(S(=O)(=O)NC2=NCC(C)(C)CN2)c(S)cc1Cl", "TGI": "94.8 µM"}

Ask: State the recorded TGI for this entry: Cc1ccc(S(=O)(=O)NNC(=O)Nc2ccc([N+](=O)[O-])cc2)cc1
Result: > 100 µM

Ask: Data request, read-out TGI, for O=c1[nH]c(=O)n(C2OC(CO)C(O)C2O)cc1F (stereo unspecified)
Result: 27.6 µM

Ask: Need TGI, item CC(=O)O[C@H]1CC[C@]2(C)C3C(=O)C[C@]4(C)[C@@H](C(C)CCC(=O)O)CC[C@@]4(C)[C@@H]3CC[C@H]2C1(C)C (stereo partly specified)
Result: > 50 µM

Ask: Given O=C(O)c1[nH]c2c([N+](=O)[O-])cc([N+](=O)[O-])cc2c1C(=O)O , state its recorded TGI.
Result: > 100 µM

====

# Test system: RPMI-8226 leukemia
# procedure.details: NCI tumour cell line growth inhibition, 48 h
reported.property: TGI

Check out these entries, answers already filled in.
{"molecule": "CN(C(=O)c1ccccc1)c1ccc2c(c1)C(=O)c1ccccc1C2=O", "target.under.test": "RPMI-8226 leukemia", "reported.property": "TGI", "test.result": "> 100 µM"}
{"molecule": "O=C(Nc1cc2cc([N+](=O)[O-])ccc2oc1=O)c1cccs1", "target.under.test": "RPMI-8226 leukemia", "reported.property": "TGI", "test.result": "> 100 µM"}
{"molecule": "NCCCNc1nc2ccccc2c2c(=O)c3cc(F)cc(Cl)c3sc12", "target.under.test": "RPMI-8226 leukemia", "reported.property": "TGI", "test.result": "5.03 µM"}
{"molecule": "CC1N=C(c2ccccc2)OC1=O (centres undefined)", "target.under.test": "RPMI-8226 leukemia", "reported.property": "TGI", "test.result": "> 100 µM"}

Ask: Fill in the blank: the reported TGI of Oc1cc(O)c2c(c1)OC(c1ccc(O)c(O)c1)C(O)C2c1c(O)cc(O)c2c1OC(c1ccc(O)c(O)c1)C(O)C2 (centres undefined) is ____.
Result: > 100 µM

Ask: Dear colleague, I am looking for the recorded TGI of the following molecule: COc1ccc(/C=C/c2nc(=S)[nH][nH]2)cc1OC
Result: > 100 µM

Ask: Which TGI is listed for N#CCCN(CCC#N)c1ccc(/C=C(/NC(=O)Nc2ccccc2Cl)NC(=O)c2cc([N+](=O)[O-])ccc2Cl)cc1 ?
Result: > 100 µM

Ask: # query: TGI of entry CC[Si](CC)(CC)OC1[C@@H](O[Si](CC)(CC)CC)[C@@H](CNC(=O)NC)O[C@H]1n1cnc2c(NC(=O)Nc3ccccc3)ncnc21 (some centres undefined)
Result: 5.33 µM

Ask: # lookup: TGI of NC(Cc1c[nH]c2cccc(F)c12)C(=O)O (centres undefined)
Result: > 4500 µM

Ask: Tell me the measured TGI of CC(=N\O)/C(C)=N/O.CC(=N\O)/C(C)=N/O.[Fe].[NH2-].c1c[nH]cn1 , please.
Result: > 100 µM

Ask: Quick check: TGI of COc1ccc2c(c1)C(=O)c1c-2n(CCCCl)c(=O)c2cc(N)ccc12 ?
Result: > 100 µM

Ask: // TGI lookup, key: O=C1C2C3C=C4c5ccccc5N(c5ccccc5)C4([C@@H]2C(=O)N1c1ccc(F)cc1)[C@H]1C(=O)N(c2ccc(F)cc2)C(=O)[C@@H]31 (some centres undefined)
Result: > 100 µM

Ask: Which TGI value is on record for COc1cccc(/C=C/C(=O)N2CC(CCl)c3c2cc(N)c2ccccc32)c1 (centres undefined) ?
Result: > 100 µM

Ask: Param item = CC(=O)O[C@H]1CC[C@]2(C)C3C(=O)C[C@]4(C)[C@@H](C(C)CCC(=O)O)CC[C@@]4(C)[C@@H]3CC[C@H]2C1(C)C (some centres undefined) ; retrieve measured TGI.
Result: > 50 µM

Ask: Can you share its TGI? I mean this molecule: CC1(C)CN(CCNc2nccc(-c3c(-c4cccc(O)c4)nc4sccn34)n2)S(=O)(=O)N1
Result: > 33.2 µM

Ask: Quick check: TGI of O=C(Nc1ccc(Cl)cc1)N1CCN(c2ccc3nncn3n2)CC1 ?
Result: > 100 µM

Ask: Recorded TGI for O=C(NCc1ccccc1)C1C(=O)C(=O)N(Cc2ccccc2)C1=O (centres undefined) , please?
Result: > 100 µM

Ask: Could you tell me which TGI is on file for CCOC(=O)c1cc2c(n1Cc1cc(OC)cc(OC)c1)-c1oncc1CC2 ?
Result: > 35.4 µM

Ask: Can you look up the measured TGI of Cc1cc(OCc2nn(CN3CCN(C)CC3)c(=S)n2/N=C/c2ccc(F)cc2)ccc1Cl for me?
Result: 40.7 µM

Ask: Which TGI value is on record for Cc1cnc2[nH]c(-c3ccc(Cl)cc3)cc(=O)c2c1 ?
Result: > 60.3 µM

Ask: What does the record list as TGI for CCN(CC)CCCC(C)Nc1ccnc(/C=C/c2ccc(Cl)cc2)c1 (centres undefined) ?
Result: 5.74 µM

Ask: Look up TGI: c1cc2c3ccsc3c3sccc3c2s1
Result: > 100 µM

Ask: What measured TGI goes with Nn1c(CCCCCCCCc2n[nH]c(=S)n2N)n[nH]c1=S ?
Result: > 100 µM
